IC50 values by entry
- Test system: HEK-293T
- Assay Text: Antiproliferative activity in human HEK293T cells incubated for 72 hrs by MTT assay
- Format: cell-based

# example entries with known answers
O=C1Nc2ccc(Br)cc2C12N(c1ccccc1)N=C(c1ccccc1)N2c1ccccc1 (centres undefined)    56.3 µM
O=C1Nc2ccc(Br)cc2C12N(c1cccc(Cl)c1)N=C(c1ccccc1)N2c1cccc(Cl)c1 (centres undefined)    16.9 µM
O=C1Nc2ccccc2C12N(c1ccccc1)N=C(c1ccccc1)N2c1cccc(Cl)c1 (centres undefined)    25.7 µM
O=C1Nc2c(Cl)cccc2C12N(c1ccccc1)N=C(c1ccccc1)N2c1ccccc1 (centres undefined)    > 100 µM
O=C1Nc2c(Cl)cccc2[C@]12[C@@H](c1ccccc1)C(c1ccccc1)=NN2c1ccccc1    > 100 µM

### Prompt Which IC50 is reported for this molecule? O=C1Nc2ccc(Cl)cc2C12N(c1ccccc1)N=C(c1ccccc1)N2c1cccc(Cl)c1 (centres undefined)
### Response > 100 µM

### Prompt Any idea what IC50 was measured for "O=C1Nc2ccc(Br)cc2[C@]12[C@@H](c1ccccc1)C(c1ccccc1)=NN2c1ccccc1" ?
### Response > 100 µM

### Prompt Need IC50 of O=C1Nc2ccccc2C12N(c1cccc(Cl)c1)N=C(c1ccccc1)N2c1ccc(Cl)cc1 (centres undefined) , thanks.
### Response 15.4 µM

### Prompt # lookup: IC50 of O=C1Nc2ccc(Br)cc2C12N(c1ccccc1)N=C(c1ccccc1)N2c1cccc(Cl)c1 (centres undefined)
### Response 21.6 µM

Values were extracted from ChEMBL document CHEMBL4130474.
